These data points were gathered from patent US11053207B2.

Assay: Pharmacokinetics of compound 6 in ICR mice after oral compound 13 (prodrug)
Type: in vivo
Conditions: compound 6 in ICR mice after oral compound 13 30 mg/kg, mean
EXPERIMENTAL ENDPOINT: Kel (h⁻¹)
I only need the number, in h⁻¹, no unit after it.

If you can, please state the reported Kel value of CS(=O)(CCNc1nonc1/C(=N/O)Nc1ccc(F)c(Br)c1)=NC#N (racemic) [compound 6] .
0.116

---

Assay: Pharmacokinetics of compound 6 in rats (intragastric, intravenous)
Format: in vivo, SD rats
Details: male, SD, rat, plasma, iv, 1 mg/kg, intravenous 1 mg/kg, individual rat, read-out: Vss
EXPERIMENTAL ENDPOINT: Vd (L/kg)
Expressed in L/kg, but write only the number.

Item CS(=O)(CCNc1nonc1/C(=N/O)Nc1ccc(F)c(Br)c1)=NC#N (racemic) has what recorded Vd?
3.39

---

Assay: Pharmacokinetics of compound 6 in rats (intragastric, intravenous)
Assay type: in vivo, SD rats
Settings: male, SD, rat, plasma, iv, 1 mg/kg, intravenous 1 mg/kg, individual rat
EXPERIMENTAL ENDPOINT: half-life

What value of half-life has been reported for the following compound? CS(=O)(CCNc1nonc1/C(=N/O)Nc1ccc(F)c(Br)c1)=NC#N (racemic) [compound 6]
1.71 h

---

Test: Pharmacokinetics of compound 6 in rats (intragastric, intravenous)
Assay type: in vivo, SD rats
Conditions: male, SD, rat, plasma, iv, 1 mg/kg, intravenous 1 mg/kg, individual rat
EXPERIMENTAL ENDPOINT: AUC(0-inf) (ng·h/mL)
Just the number in ng·h/mL, nothing appended.

Can you share its AUC(0-inf)? I mean this compound: CS(=O)(CCNc1nonc1/C(=N/O)Nc1ccc(F)c(Br)c1)=NC#N (racemic)
563

---

Assay: Pharmacokinetics of compound 6 in rats (intragastric, intravenous)
Type: in vivo, SD rats
Settings: male, SD, rat, plasma, po, 10 mg/kg, intragastric 10 mg/kg, individual rat, read-out: Cmax
EXPERIMENTAL ENDPOINT: Cmax
Lab note: write values as number then unit, every time.

Recorded Cmax of CS(=O)(CCNc1nonc1/C(=N/O)Nc1ccc(F)c(Br)c1)=NC#N (racemic) , please.
593 ng/mL

---

Assay: Pharmacokinetics of compound 6 in rats (intragastric, intravenous)
Type: in vivo, SD rats
Conditions: male, SD, rat, plasma, po, 10 mg/kg, intragastric 10 mg/kg, mean
EXPERIMENTAL ENDPOINT: AUC(0-inf) (ng·h/mL)
State the answer as a number, implicitly in ng·h/mL.

Sample CS(=O)(CCNc1nonc1/C(=N/O)Nc1ccc(F)c(Br)c1)=NC#N (racemic) — what was its AUC(0-inf)?
2830

---

Target: UniProt:P14902
Sequence (P14902 whole entry): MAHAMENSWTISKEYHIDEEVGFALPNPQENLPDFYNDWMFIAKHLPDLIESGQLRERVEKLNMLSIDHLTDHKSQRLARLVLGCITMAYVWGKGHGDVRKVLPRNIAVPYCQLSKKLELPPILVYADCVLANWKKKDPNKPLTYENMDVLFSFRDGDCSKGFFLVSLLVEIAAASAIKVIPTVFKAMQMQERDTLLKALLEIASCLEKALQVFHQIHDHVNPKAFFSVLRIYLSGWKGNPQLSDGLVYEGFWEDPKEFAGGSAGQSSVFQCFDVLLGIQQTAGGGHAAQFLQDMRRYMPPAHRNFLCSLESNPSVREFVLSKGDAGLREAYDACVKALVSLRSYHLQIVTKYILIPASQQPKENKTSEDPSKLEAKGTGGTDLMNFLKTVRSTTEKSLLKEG
EXPERIMENTAL ENDPOINT: IC50

The following compounds have reported results that may help.
Look up IC50 for this compound: N=S(=O)(CCNc1nonc1/C(=N/O)Nc1ccc(F)c(Br)c1)c1ccccc1 (racemic)
< 2.6 µM

Quick one: IC50 for CS(=O)(CCCCNc1nonc1/C(=N/O)Nc1ccc(F)c(Cl)c1)=NC#N (racemic) ?
< 18 µM

So what's the measured IC50 for this one? CS(=N)(=O)CCCCNc1nonc1/C(=N/O)Nc1ccc(F)c(Br)c1 (racemic)
0.074 µM

---
Consider the compound CS(=N)(=O)CCCCNc1nonc1/C(=N/O)Nc1cccc(C(F)(F)F)c1 (racemic) and give its measured IC50.
< 3.6 µM

So what does the record say about IC50 for CS(=O)(CCCNc1nonc1/C(=N/O)Nc1ccc(F)c(Cl)c1)=NC#N (racemic) ?
< 5 µM

// lookup IC50 for CS(=N)(=O)CCCNc1nonc1/C(=N/O)Nc1cccc(S(F)(F)(F)(F)F)c1 (racemic)
< 14 µM

Need IC50, item C[S@](=N)(=O)CCNc1nonc1/C(=N/O)Nc1ccc(F)c(Br)c1
< 5.2 µM

---

Test system: Hela cells
Test: Test for cell activity (Hela cells, interferon γ, kynurenine read at 480 nm)
Format: cell-based
Settings: human interferon γ 50 ng/mL, 48 h
pIC50: −log10 of the molar value.
EXPERIMENTAL ENDPOINT: pIC50

Observe how each entry below is paired with its result.
May I ask what pIC50 has been recorded for CS(=N)(=O)CCCNc1nonc1/C(=N/O)Nc1cccc(S(F)(F)(F)(F)F)c1 (racemic) ?
> 6.10

Given the compound C[S@@](=N)(=O)CCNc1nonc1/C(=N/O)Nc1ccc(F)c(Br)c1 , what is its reported pIC50?
> 7.15

Fill blank: measured pIC50 of the compound CS(=N)(=O)CCCCNc1nonc1/C(=N/O)Nc1ccc(F)c(Br)c1 (racemic) is ____.
8.10

Bench note: what pIC50 did C[S@](=N)(=O)CCNc1nonc1/C(=N/O)Nc1ccc(F)c(Br)c1 show?
> 7.10

Need pIC50, item N=S(=O)(CCNc1nonc1/C(=N/O)Nc1ccc(F)c(Br)c1)c1ccccc1 (racemic)
> 6.59

Continuing:
Field request: pIC50 | item: CS(=N)(=O)CCCCNc1nonc1/C(=N/O)Nc1ccc(F)c(C(F)(F)F)c1 (racemic)
> 6.30

For the compound shown here, CS(=N)(=O)CCCNc1nonc1/C(=N/O)Nc1ccc(F)c(Br)c1 (racemic) , give the reported pIC50.
> 7.00

Fill in the blank: the reported pIC50 of CS(=N)(=O)CCCCNc1nonc1/C(=N/O)Nc1cccc(C(F)(F)F)c1 (racemic) is ____.
> 7.12
